experiment_summary: Plasmodium falciparum growth inhibition, primary screen, strain 3D7, DAPI fluorescence, 100 nL (AID 1184);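 further: parasites grown inside human red blood cells in medium with human serum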
protocol_conditions: P. falciparum 3D7 growth, 3 d, higher = more signal
Each item that follows carries a reported z-score.
quantity: z-score

1. COc1ccc([Si](C)(C)[C@@H]2[C@@H](CC(=O)N3Cc4ccccc4C[C@H]3CO)O[C@]3(C(=O)N(c4ccccc4)c4ccccc43)[C@H]2C)cc1 ... -2.38
2. COC(=O)[C@@]1(Cc2ccccc2)[C@H]2c3cc(C(=O)N(C)C)n(CCn4cc([N+](=O)[O-])nc4C)c3C[C@H]2CN1C(=O)c1ccccc1 ... 0.391
3. CCCNC(=O)[C@@]1(Sc2ccc(C)cc2)CC(=O)N(C(C)C)[C@@H]1c1ccc(CO)cc1I ... -0.221
4. C=C/C=C/[C@@H]1C(=C)CN([C@@H](Cc2ccccc2)C(=O)OC)[C@H]1[C@@H](O)Cc1ccccc1 ... 0.135

---

Test system: Chordin-like protein 2 (CHRDL2)
experiment_summary: CHRDL2 small-molecule binders, primary screen, biochemical, small-molecule microarray, 635 nm fluorescence (AID 1126);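 further: printed compound slides probed with Chrdl2 protein at 4 µg/mL for 1 h at 4 C; score merges 667 nm emission intensity with signal to noise over three replicate slides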
protocol_conditions: small-molecule microarray binding, fluorescence 635 nm; higher = more signal
Give Y when the value for composite z-score is at least 0.3. Give N when it is less.

1. O=C(CS)NCCCCCNC(=O)[C@@H]1C[C@@H]2C(=O)N[C@@H](Cc3ccccc3)C(=O)N2[C@@H]1c1cccc(OCCO)c1 ... Y
2. O=C(N1CCOCC1)[C@@]1(CCS(=O)(=O)c2ccccc2)N=C(c2ccc(OCCCO)cc2)O[C@H]1c1ccccc1 ... N
3. CCOC(=O)C1=CCC(c2ccccc2)N(S(=O)(=O)c2ccc([N+](=O)[O-])cc2)C1 (configuration not stated) ... N
4. C=CCN1C(=O)[C@]2(O[C@H](CCO)[C@@H]([Si](C)(C)c3ccc(OC)cc3)[C@@H]2C)c2cc(NC(=O)c3ccc(OC)cc3)ccc21 ... Y
5. CCc1cccc(NC(=O)O[C@H]2[C@H](OC(=O)Nc3ccccc3)[C@H](OC(=O)Nc3ccccc3)[C@@H](OC)O[C@@H]2CO)c1 ... N
6. COCCOC(=O)N1C(=O)[C@@]2(c3cc(C#CCCO)ccc31)[C@H](C(=O)N1CCCCCCC1)[C@H]1C(=O)O[C@H](c3ccccc3)[C@H](c3ccccc3)N1[C@@H]2c1ccccc1OCCO ... Y

---

study_target: Focal adhesion kinase 1 (Homo sapiens)
experiment_summary: small-molecule microarray binders of FAK, primary screen, biochemical, 635/667 nm fluorescence, BSA, DTT (AID 1130);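 further: composite of spot emission at 667 nm and signal to noise over triplicate slides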
protocol_conditions: PTK2 binding, 635 nm fluorescence, higher = more signal
Tag: condition met if measured composite z-score is not below 0.7, condition not met if it is.

1. CN(C)C(=O)[C@]1(CCS(=O)(=O)c2ccccc2)N=C(c2ccc(OCCCO)cc2)O[C@@H]1c1ccccc1 ... condition met
2. C=CCNC(=O)[C@@H]1[C@H]2C(=O)O[C@H](c3ccccc3)[C@H](c3ccccc3)N2[C@H](c2ccc(OCCO)cc2)[C@@]12C(=O)N(C(=O)OCCOC)c1ccc(C#CCCO)cc12 ... condition met
3. COc1ccc([Si](C)(C)[C@@H]2[C@@H](CCn3cc([C@H](O)c4ccccc4)nn3)O[C@]3(C(=O)N(c4ccccc4)c4ccccc43)[C@H]2C)cc1 ... condition not met
4. CCOC(=O)C1=C[C@@H](C(C)(C)C)N(S(=O)(=O)c2ccc(C)cc2)[C@H]1c1ccccc1 ... condition not met
5. CC=CC(O)C1C=CC2C(=O)NC(=O)C2N1Nc1ccccn1 (configuration not stated) ... condition not met
6. CCOC(=O)C1=CCC(c2ccccc2)N(S(=O)(=O)c2ccc([N+](=O)[O-])cc2)C1 (configuration not stated) ... condition not met
7. C[C@]1(C(=O)NCCN2CCOCC2)c2ccccc2C(=O)N(Cc2cc(F)cc(C(F)(F)F)c2)[C@H]1c1ccc(CO)cc1 ... condition met

Origin of measurements: PubChem BioAssay
